- measured on: α1d-adrenoceptor (recombinant) (Homo sapiens)
- Sequence (P25100 1-572): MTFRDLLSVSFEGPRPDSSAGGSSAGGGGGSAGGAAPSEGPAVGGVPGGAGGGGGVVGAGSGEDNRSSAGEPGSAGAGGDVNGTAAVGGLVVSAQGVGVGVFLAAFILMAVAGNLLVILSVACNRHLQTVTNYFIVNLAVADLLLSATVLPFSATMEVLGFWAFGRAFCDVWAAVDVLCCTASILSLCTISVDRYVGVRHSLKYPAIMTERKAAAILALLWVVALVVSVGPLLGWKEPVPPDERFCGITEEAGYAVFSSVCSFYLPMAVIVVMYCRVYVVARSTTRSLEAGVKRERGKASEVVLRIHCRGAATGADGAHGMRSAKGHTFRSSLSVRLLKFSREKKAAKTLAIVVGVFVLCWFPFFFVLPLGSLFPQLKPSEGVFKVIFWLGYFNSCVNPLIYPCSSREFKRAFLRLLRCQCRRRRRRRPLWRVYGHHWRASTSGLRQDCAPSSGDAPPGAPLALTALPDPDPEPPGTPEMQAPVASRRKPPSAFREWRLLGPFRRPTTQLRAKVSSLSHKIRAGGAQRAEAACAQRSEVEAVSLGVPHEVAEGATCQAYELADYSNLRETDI
- run description: Radioligand binding, cloned α1d-adrenoceptor ([3H]prazosin)
- applied conditions: read-out: Affinity for recombinant α1d-adrenoceptor, cloned receptors (Ki)
# note: exactly 3 nM is not below, so it is N; use Y for Ki strictly under it

hey, is Ki for Cc1c(C(N)=O)oc2c(C(=O)NCCCN3CCN(c4cc(Cl)ccc4OS(=O)(=O)C(F)(F)F)CC3)cccc2c1=O lower than 3 nM or not?
N

Item: COc1ccc(OCC(F)(F)F)cc1N1CCN(CCCNC(=O)c2cccc3c(=O)c(C)c(-c4ccccc4)oc23)CC1
N

---

- measured on: α1L adrenoceptor (Oryctolagus cuniculus)
- run description: Functional antagonism of noradrenaline-induced contractions of rabbit aorta pretreated with chloroethylclonidine
- Format: biochemical
- applied conditions: NA-induced contractions of rabbit aorta pretreated with chloroethylclonidine
Each entry below carries its recorded Functional affinity for the α1L adrenoceptor subtype, pKb.

# compound, value reported
data = [
    ("Cc1c(-c2ccccc2)oc2c(C(=O)NCCCN3CCN(c4ccc(F)cc4OCC(F)(F)F)CC3)cccc2c1=O", 8.72),
]

Field request: Functional affinity for the α1L adrenoceptor subtype, pKb | item: COc1ccc(Cl)cc1N1CCN(CCCNC(=O)c2cccc3c(=O)c(C)c(NC(=O)OC(C)(C)C)oc23)CC1.O
8.43

Try COc1cc2nc(N3CCN(C(=O)C4CCCO4)CC3)nc(N)c2cc1OC (stereo not drawn) [terazosin, reference compound] next.
7.25

Could you do the same for Cc1c(C(N)=O)oc2c(C(=O)NCCCN3CCN(c4cc(F)ccc4OCC(F)(F)F)CC3)cccc2c1=O , please?
9

Param item: COc1ccc(Cl)cc1N1CCN(CCCNC(=O)c2cccc3c(=O)c(C)c(C(N)=O)oc23)CC1
8.27

Please give the result for CCOC(=O)c1oc2c(C(=O)NCCCN3CCN(c4cc(Cl)ccc4OC)CC3)cccc2c(=O)c1C too.
8.47

---

Ki values recorded for 5HT1A-serotoninergic receptor (Homo sapiens, UniProt P08908)
Numbers only; they are read as µM.

Requested field: Ki. Item: Cc1c(C(N)=O)oc2c(C(=O)NCCCN3CCN(c4ccccc4OCC(F)(F)F)CC3)cccc2c1=O [Example 10]
0.00554

---

- measured on: α1a-adrenoceptor (recombinant) (Homo sapiens, UniProt P35348)
- Sequence (P35348 whole entry): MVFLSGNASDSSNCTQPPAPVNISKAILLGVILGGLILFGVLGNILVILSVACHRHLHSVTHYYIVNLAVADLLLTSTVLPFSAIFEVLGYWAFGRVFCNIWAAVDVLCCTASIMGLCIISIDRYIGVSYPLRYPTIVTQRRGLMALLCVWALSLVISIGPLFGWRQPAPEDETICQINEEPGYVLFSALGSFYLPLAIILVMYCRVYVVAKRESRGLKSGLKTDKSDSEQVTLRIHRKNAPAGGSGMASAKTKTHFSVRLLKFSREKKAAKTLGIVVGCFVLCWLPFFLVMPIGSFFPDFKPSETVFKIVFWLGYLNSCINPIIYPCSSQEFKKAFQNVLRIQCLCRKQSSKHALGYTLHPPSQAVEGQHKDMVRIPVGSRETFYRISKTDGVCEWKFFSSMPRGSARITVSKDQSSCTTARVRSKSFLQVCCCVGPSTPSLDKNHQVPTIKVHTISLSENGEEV
- run description: Radioligand binding, cloned α1a-adrenoceptor ([3H]prazosin)
- applied conditions: read-out: Affinity for recombinant α1a-adrenoceptor, cloned receptors (Ki)
pKi: −log10 of the molar value.
Label label 1 when pKi >= 9; otherwise label 0.

Would you please look over these solved cases?
# chem smiles, label value
measured = [
    ("Cc1c(-c2ccccc2)oc2c(C(=O)NCCCN3CCN(c4cc(F)ccc4OCC(F)(F)F)CC3)cccc2c1=O", "label 1"),
    ("Cc1c(C(N)=O)oc2c(C(=O)NCCCN3CCN(c4cc(F)ccc4OCC(F)(F)F)CC3)cccc2c1=O", "label 1"),
]

API: the following record is the query input.
hey, is pKi for this one >= 9? COc1ccc(Cl)cc1N1CCN(CCCNC(=O)c2cccc3c(=O)c(C)c(C(N)=O)oc23)CC1
label 0

---

- measured on: α1d-adrenoceptor (recombinant) (Homo sapiens)
- run description: Radioligand binding, cloned α1d-adrenoceptor ([3H]prazosin)
- applied conditions: read-out: Affinity for recombinant α1d-adrenoceptor, cloned receptors (Ki)
Overview of recorded pKi for various compounds
In simple prose, pKi is minus the logarithm base ten of a concentration in moles per litre.

# annotated cases, reported pKi shown
# compound, pKi
records = [
    ("Cc1c(-c2ccccc2)oc2c(C(=O)NCCCN3CCN(c4ccccc4OCC(F)(F)F)CC3)cccc2c1=O [Example 15]", 8.47),
    ("COc1ccc(Cl)cc1N1CCN(CCCNC(=O)c2cccc3c(=O)c(C)c(NC(=O)OC(C)(C)C)oc23)CC1.O [Example 3, monohydrate]", 9.35),
    ("CNC(=O)c1oc2c(C(=O)NCCCN3CCN(c4cc(Cl)ccc4OC)CC3)cccc2c(=O)c1C [Example 5]", 8.69),
    ("Cc1c(C(N)=O)oc2c(C(=O)NCCCN3CCN(c4cc(F)ccc4OCC(F)(F)F)CC3)cccc2c1=O [Example 8]", 8.52),
    ("Cc1c(C(N)=O)oc2c(C(=O)NCCCN3CCN(c4cc(Cl)ccc4O)CC3)cccc2c1=O [Example 12]", 8.00),
    ("COc1ccc(C#N)cc1N1CCN(CCCNC(=O)c2cccc3c(=O)c(C)c(-c4ccccc4)oc23)CC1 [Example 18]", 7.34),
    ("CCOC(=O)c1oc2c(C(=O)NCCCN3CCN(c4cc(Cl)ccc4OC)CC3)cccc2c(=O)c1C [Example 4]", 8.56),
    ("Cc1c(-c2ccccc2)oc2c(C(=O)NCCCN3CCN(c4cc(Cl)ccc4OCC(F)(F)F)CC3)cccc2c1=O [Example 22]", 8.51),
    ("COc1ccc(Cl)cc1N1CCN(CCCNC(=O)c2cccc3c(=O)c(C)c(C(N)=O)oc23)CC1 [Example 1]", 7.24),
    ("Cc1c(C(N)=O)oc2c(C(=O)NCCCN3CCN(c4ccccc4OCC(F)(F)F)CC3)cccc2c1=O [Example 10]", 8.19),
]

Moving on to the next compound.
Using the record for COc1cc2nc(N3CCN(C(=O)C4CCCO4)CC3)nc(N)c2cc1OC (centres unmarked) [terazosin, reference compound] , report its pKi.
8.62

---

- measured on: α1L adrenoceptor (Oryctolagus cuniculus, UniProt O02824)
- Sequence (O02824 whole entry): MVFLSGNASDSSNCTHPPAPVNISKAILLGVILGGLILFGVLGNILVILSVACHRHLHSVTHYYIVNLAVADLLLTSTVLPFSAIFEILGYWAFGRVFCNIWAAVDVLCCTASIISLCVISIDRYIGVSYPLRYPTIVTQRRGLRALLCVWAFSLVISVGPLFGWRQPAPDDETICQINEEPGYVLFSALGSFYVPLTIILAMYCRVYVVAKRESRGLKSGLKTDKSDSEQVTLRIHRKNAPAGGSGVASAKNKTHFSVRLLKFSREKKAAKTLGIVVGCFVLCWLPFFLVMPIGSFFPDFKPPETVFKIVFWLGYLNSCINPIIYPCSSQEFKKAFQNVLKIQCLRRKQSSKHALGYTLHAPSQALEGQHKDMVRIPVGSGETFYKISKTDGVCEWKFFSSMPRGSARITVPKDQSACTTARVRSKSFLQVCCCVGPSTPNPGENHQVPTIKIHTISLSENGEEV
- run description: Functional antagonism of noradrenaline-induced contractions of rabbit aorta pretreated with chloroethylclonidine
- Format: biochemical
- applied conditions: NA-induced contractions of rabbit aorta pretreated with chloroethylclonidine
endpoint: Functional affinity for the α1L adrenoceptor subtype, pKb
Enter a number only.

Sample answers from the record:
# compound, value reported
data = [
    ("COc1ccc(Cl)cc1N1CCN(CCCNC(=O)c2cccc3c(=O)c(C)c(C(=O)N(C)C)oc23)CC1 [Example 6]", 8.55),
    ("COc1ccc(C(F)(F)F)cc1N1CCN(CCCNC(=O)c2cccc3c(=O)c(C)c(-c4ccccc4)oc23)CC1 [Example 17]", 8.03),
]

Okay, now this compound:
Would you kindly share the measured Functional affinity for the α1L adrenoceptor subtype, pKb for COc1ccc(Cl)cc1N1CCN(CCCNC(=O)c2cccc3c(=O)c(C)c(C#N)oc23)CC1 [Example 11] ?
8.45

---

- measured on: UniProt:P08908
Counter-ions that a name gives are not always drawn.
endpoint: Ki
The answer consists of two parts: a number and, after it, its unit.

Recorded results for 8 molecules are shown here.
# molecule, value reported
measured = [
    ("COc1ccc(Cl)cc1N1CCN(CCCNC(=O)c2cccc3c(=O)c(C)c(C#N)oc23)CC1", "24.4 nM"),
    ("Cc1c(C(N)=O)oc2c(C(=O)NCCCN3CCN(c4ccc(F)cc4OCC(F)(F)F)CC3)cccc2c1=O", "12.8 nM"),
    ("COc1ccc(Cl)cc1N1CCN(CCCNC(=O)c2cccc3c(=O)c(C)c(C(N)=O)oc23)CC1", "17.2 nM"),
    ("CCOC(=O)c1oc2c(C(=O)NCCCN3CCN(c4cc(Cl)ccc4OC)CC3)cccc2c(=O)c1C", "15.2 nM"),
    ("Cc1c(-c2ccccc2)oc2c(C(=O)NCCCN3CCN(c4ccccc4OCC(F)(F)F)CC3)cccc2c1=O", "0.71 nM"),
    ("COc1ccc(Cl)cc1N1CCN(CCCNC(=O)c2cccc3c(=O)c(C)c(C(=O)N(C)C)oc23)CC1", "68.4 nM"),
    ("COc1ccc(Cl)cc1N1CCN(CCCNC(=O)c2cccc3c(=O)c(C)c(NC(=O)OC(C)(C)C)oc23)CC1.O [Example 3, monohydrate]", "81.9 nM"),
    ("COc1ccc(C#N)cc1N1CCN(CCCNC(=O)c2cccc3c(=O)c(C)c(-c4ccccc4)oc23)CC1", "677 nM"),
]

Consider the molecule shown here: Cc1c(-c2ccccc2)oc2c(C(=O)NCCCN3CCN(c4cc(Cl)ccc4OS(=O)(=O)C(F)(F)F)CC3)cccc2c1=O [Example 24, hydrochloride] What is its recorded Ki?
140 nM

Request: COc1ccc(Cl)cc1N1CCN(CCCNC(=O)c2cccc3c(=O)c(C)c(C(C)=O)oc23)CC1
12.3 nM
